Source: paper PMC3034641

system_under_test: T1, purified recombinant human CCL21 (Chemicon) (human, UniProt O00585 24-134)
T1 sequence (looked up): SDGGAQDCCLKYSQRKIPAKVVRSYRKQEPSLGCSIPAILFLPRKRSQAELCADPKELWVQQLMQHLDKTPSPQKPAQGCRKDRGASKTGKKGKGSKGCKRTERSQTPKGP
experimental_details: SPR

binder: Chemotrap-1 (THAP1(140-213)-Fc), purified from CHO cells (Fc fusion, human, UniProt Q9NVV9 140-213, looked up) EDTMHQRKRIHQLEQQVEKLRKKLKTAQQRCRRQERQLEKLKEVVHFQKEKDDVSERGYVILPNDYFEIVEVPA
unit_abbrev: nM
Kd: 102
